system: CAKI-1; assay: NCI tumour cell line growth inhibition, 48 h
Active and inactive are the calls of the source. Cut-off read from the data, not from the text of the source: active = GI50 up to about 1.1 µM and inactive = higher.
Please state which outcome applies, choosing from active, inactive

>>> qualitative_label("O=C(O)c1cc(=O)c2c(OCC(O)COc3cccc4oc(C(=O)O)cc(=O)c34)cccc2o1")
"inactive"
>>> qualitative_label("COc1cc2c(c(OC)c1OC)-c1ccc(OC)c(=O)cc1C(NC(=O)c1ccc(N=[N+]=[N-])cc1)CC2 (stereo unspecified)")
"active"
>>> qualitative_label("CC(C)=CCC/C(=C\\CC/C(=C\\CCc1ccoc1)C(=O)O)C(=O)O")
"inactive"
>>> qualitative_label("Cc1cc(N(CCC#N)S(=O)(=O)c2ccccc2)ccc1/C=C1\\N=C(c2ccc(Cl)cc2)OC1=O")
"inactive"
>>> qualitative_label("O=[N+]([O-])C=C(c1ccc(Cl)cc1)c1ccc(Cl)cc1")
"inactive"
>>> qualitative_label("CC1CCSC(N(C(=O)N(C)c2ccccc2)c2ccccc2)=N1 (stereo unspecified)")
"inactive"
>>> qualitative_label("COc1ccc(OC)c(-c2cc(C(=O)O)c3cc4ccccc4cc3n2)c1")
"inactive"
>>> qualitative_label("CC1(C)COCN1COC1CCCCC1")
"inactive"

Prompt line: Hi, sorry to bother you, what did the test record for COC1/C(=C\C(=O)OC(C)(C)C)c2ccccc2N1C(C)=O (stereo unspecified) ?
Response line: inactive

Prompt line: Hi, sorry to bother you, what did the test record for CC(=O)N1C(OCc2ccccc2)CCN1c1ccccc1 (stereo unspecified) ?
Response line: inactive

Prompt line: Hi, sorry to bother you, what did the test record for "O=C1OC(c2ccccc2)=N/C1=C\c1ccc2ccccc2c1" ?
Response line: inactive

Prompt line: Hi, sorry to bother you, what did the test record for C/C=C1/CN2CCC34c5ccccc5N(C)C23C2CC1C4(C(=O)OC)C(O)O2 (stereo unspecified) ?
Response line: inactive

Prompt line: Hi, sorry to bother you, what did the test record for Cc1ccc(/N=N/c2c(C)c(C#N)c(=S)n(C3OC(CO)C(O)C(O)C3O)c2-c2ccccc2)cc1 (stereo unspecified) ?
Response line: inactive

Prompt line: Hi, sorry to bother you, what did the test record for COC(=O)Cc1c(-c2c(CC(=O)OC)c3ccccc3n2C2OC(COC3OC(COC(C)=O)C(OC(C)=O)C(OC(C)=O)C3OC(C)=O)C(O)C(O)C2O)[nH]c2ccccc12 (stereo unspecified) ?
Response line: inactive

Prompt line: Hi, sorry to bother you, what did the test record for NC(=O)NC1C(C(=O)O)N(Cc2ccccc2)C(=O)N1Cc1ccccc1 (stereo unspecified) ?
Response line: inactive

Prompt line: Hi, sorry to bother you, what did the test record for "O=C(O)c1ccc(C(=O)c2ccccc2C(=O)O)cc1C(=O)O" ?
Response line: inactive

Prompt line: Hi, sorry to bother you, what did the test record for Cc1cccc2c1N(C(=O)/C=C\C(=O)O)C(c1c(C)[nH]c3ccccc13)C2 (stereo unspecified) ?
Response line: inactive

Prompt line: Hi, sorry to bother you, what did the test record for "N#C[C@H](C(=O)c1ccccc1F)c1nc2ccccc2s1" ?
Response line: inactive

Prompt line: Hi, sorry to bother you, what did the test record for "NC(=S)Nc1c(S(N)(=O)=O)cc(S(N)(=O)=O)c(Cl)c1Cl" ?
Response line: inactive

Prompt line: Hi, sorry to bother you, what did the test record for NC1CCC(c2cc3ccccc3s2)(N2CCCCC2)CC1 (stereo unspecified) ?
Response line: inactive

Prompt line: Hi, sorry to bother you, what did the test record for "CC1(C)N=C(c2ccccc2)SC12S[C@@H]1CCCC[C@H]1S2" ?
Response line: inactive
